Target: UniProtKB P25099
Sequence (whole entry): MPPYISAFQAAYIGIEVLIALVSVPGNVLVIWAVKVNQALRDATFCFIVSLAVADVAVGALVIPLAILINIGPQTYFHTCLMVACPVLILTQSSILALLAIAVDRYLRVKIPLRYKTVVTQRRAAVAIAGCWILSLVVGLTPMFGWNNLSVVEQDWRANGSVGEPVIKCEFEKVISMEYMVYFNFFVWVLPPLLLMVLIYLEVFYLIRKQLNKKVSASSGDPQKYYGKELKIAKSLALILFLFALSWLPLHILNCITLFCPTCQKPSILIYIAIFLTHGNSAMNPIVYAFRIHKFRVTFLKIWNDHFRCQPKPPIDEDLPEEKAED
Assay: GTP shift ratio of the apparent Ki values in the presence and absence of GTP.
Assign Ratio to each entry below.
The response must contain the number and no unit.

Provide the documented Ratio with UniProtKB P25099 as the system for O=C(CCc1ccccc1)N[C@H]1C(CO)O[C@@H](n2cnc3c(NC4CCCC4)ncnc32)[C@@H]1O (single isomer, unassigned)
0.99

# repeat for O=C(N[C@H]1C(CO)O[C@@H](n2cnc3c(NC4CCCC4)ncnc32)[C@@H]1O)c1ccccc1 (single isomer, unassigned)
0.8

Next up: COc1ccc(C(=O)N[C@H]2C(CO)OC(n3cnc4c(NC5CCCC5)ncnc43)C2O)cc1 (stereo partly drawn)
0.77

Record: OC[C@@H]1C[C@@H](O)[C@H](n2cnc3c(NC4CCCC4)ncnc32)O1
4.3

And O=C(CCCC1CCCCC1)N[C@H]1C(CO)OC(n2cnc3c(NC4CCCC4)ncnc32)C1O (stereo partly drawn) ?
0.8

Thanks! And O=C(Cc1ccccc1)N[C@H]1C(CO)OC(n2cnc3c(NC4CCCC4)ncnc32)C1O (stereo partly drawn) ?
0.95

Entry Nc1ncnc2c1ncn2C1OC(CO)[C@H](NC(=O)CCCCc2ccccc2)C1O (stereo partly drawn) please
0.73

// next record Nc1ncnc2c1ncn2[C@@H]1OC(CO)[C@H](NC(=O)CCOc2ccccc2)[C@H]1O (single isomer, unassigned)
0.74
